Value source: ChEMBL document CHEMBL2331181

Listing of entries alongside the reported IC50.
Test system: SGC-7901
Assay info: Cytotoxicity against human SGC7901 cells after 48 hrs by MTT assay
Type: functional, cell-based
Experimental parameters: SGC-7901, 48 h

Example entries begin here.
CCOC(=O)[C@]1(C)CCC[C@@]2(C)[C@@H]3CC[C@@]4(C)C[C@]3(CC[C@@H]21)[C@@H]1CON(C(=S)Nc2ccc(Cl)cc2)[C@@H]14
> 50 µM
CCOC(=O)[C@]1(C)CCC[C@@]2(C)[C@@H]3CC[C@@]4(C)C[C@]3(CC[C@@H]21)[C@@H]1CON(C(=S)Nc2ccccc2Br)[C@@H]14
> 50 µM

Here's the next entry for you.
Prompt: Read off the recorded IC50 for CCOC(=O)[C@]1(C)CCC[C@@]2(C)[C@@H]3CC[C@@]4(C)C[C@]3(CC[C@@H]21)[C@@H]1CON(C(=S)Nc2cccc(OC)c2)[C@@H]14
Response: > 50 µM
